The values you see were collected from paper PMC6804080.

experiment: plasma protein binding, equilibrium dialysis, rat plasma; assay type: in vitro ADME; settings: pH 7.4, rat plasma, read-out: PPB: fraction bound, rat (converted)
observation.type: fraction unbound at 4 h, 5 µM

The following molecules have reported results that may help.
molecule=O=C(OCc1cc(Cl)cc(Cl)c1)N1CCN(C2CN(C(=O)c3ccc4c(c3)B(O)OC4)C2)CC1 observation_type="fraction unbound at 4 h, 5 µM" observed=0.016
molecule=Cc1cc(C)cc(COC(=O)N2CCN(C3CN(C(=O)c4ccc5c(c4)B(O)OC5)C3)CC2)c1 observation_type="fraction unbound at 4 h, 5 µM" observed=0.056
molecule="O=C1S/C(=C\\c2ccc(OCc3ccc(B(O)O)cc3)cc2)C(=O)N1Cc1ccc(F)cc1 [HA155, reference compound]" observation_type="fraction unbound at 4 h, 5 µM" observed=0.001

A = O=C(OCc1cc(Cl)cc(Cl)c1)N1CCN(C2CCN(C(=O)c3ccc4c(c3)B(O)OC4)C2)CC1 (centres unmarked)
B = Cc1cc(C)cc(COC(=O)N2CCN(C3CCN(C(=O)c4ccc5c(c4)B(O)OC5)C3)CC2)c1 (centres unmarked)
Challenge: Thinking about recorded fraction unbound at 4 h, 5 µM values, which is higher, A or B ? Give the chosen item's label as your response.
Response given: B

----------
assay: Chrom logD determination by gradient HPLC (CHI); type: physicochemical; settings: reversed-phase HPLC, Phenomenex Luna C18 column; pH 7.4, Luna C18 column
observation.type: chromatographic logD

compound=O=C(OCc1cc(Cl)cc(Cl)c1)N1CCN(C2CN(C(=O)c3ccc4c(c3)COB4O)C2)CC1 observed=4.46
compound="O=C(OCc1cc(Cl)cc(Cl)c1)N1CCN(C2CCN(C(=O)c3ccc4c(c3)B(O)OC4)C2)CC1 (centres unmarked)" observed=4.52
compound="COc1cc(COC(=O)N2CCN(C3CCN(C(=O)c4ccc5c(c4)B(O)OC5)C3)CC2)cc(OC)c1 (centres unmarked)" observed=3.19
compound="Cc1cc(C)cc(COC(=O)N2CCN(C3CCN(C(=O)c4ccc5c(c4)B(O)OC5)C3)CC2)c1 (centres unmarked)" observed=4.13
compound="O=C(OCc1ccccc1)N1CCN(C2CCN(C(=O)c3ccc4c(c3)B(O)OC4)C2)CC1 (centres unmarked)" observed=3.05

I = O=C(OCc1ccccc1)N1CCN(C2CN(C(=O)c3ccc4c(c3)B(O)OC4)C2)CC1
II = O=C(OCc1cc(Cl)cc(Cl)c1)N1CCN(C2CN(C(=O)c3ccc4c(c3)B(O)OC4)C2)CC1
Challenge: Between I and II , which one shows the smaller chromatographic logD number? API: response body contains the label of the selected item.
Response given: I
(I: 3.07, II: 4.58)

----------
Recorded solubility kinetic at 1 h, one value per entry.
experiment: kinetic solubility, turbidimetric method; type: physicochemical; conditions: 37 °C, pH 7.4, aqueous buffer, kinetic from dmso stock, Solubility (kinetic solubility range)

Example cases with answers are listed next.
molecule=O=C(OCc1cc(Cl)cc(Cl)c1)N1CCN(C2CN(C(=O)c3ccc4c(c3)B(O)OC4)C2)CC1 observed="30 to 100 µM"
molecule=O=C(OCc1cc(Cl)cc(Cl)c1)N1CCN(C2CCN(C(=O)c3ccc4c(c3)COB4O)CC2)CC1 observed="> 100 µM"
molecule="O=C(OCc1cc(Cl)cc(Cl)c1)N1CCN(C2CCN(C(=O)c3ccc4c(c3)B(O)OC4)C2)CC1 (stereo not shown)" observed="> 100 µM"
molecule="O=C(OCc1cc(Cl)cc(Cl)c1)N1CCN(C2CCN(C(=O)c3cccc4c3B(O)OC4)C2)CC1 (stereo not shown)" observed="> 100 µM"
molecule=O=C(OCc1cc(Cl)cc(Cl)c1)N1CCN(C2CN(C(=O)c3ccc4c(c3)COB4O)C2)CC1 observed="30 to 100 µM"
molecule=Cc1cc(C)cc(COC(=O)N2CCN(C3CN(C(=O)c4ccc5c(c4)B(O)OC5)C3)CC2)c1 observed="> 100 µM"

For the next question, use this molecule.
Challenge: Give solubility kinetic at 1 h for the following molecule: Cc1cc(C)cc(COC(=O)N2CCN(C3CCN(C(=O)c4ccc5c(c4)B(O)OC5)C3)CC2)c1 (stereo not shown)
Response given: > 100 µM

----------
assay: Chrom logD determination by gradient HPLC (CHI); format: physicochemical; settings: reversed-phase HPLC, Phenomenex Luna C18 column; pH 7.4, Luna C18 column
observation.type: chromatographic logD

compound="O=C(OCc1ccccc1)N1CCN(C2CCN(C(=O)c3ccc4c(c3)COB4O)C2)CC1 (stereo not shown)" observation_type="chromatographic logD" observed=2.9
compound="O=C(OCc1cc(Cl)cc(Cl)c1)N1CCN(C2CCN(C(=O)c3cccc4c3B(O)OC4)C2)CC1 (stereo not shown)" observation_type="chromatographic logD" observed=4.63
compound=Cc1cc(C)cc(COC(=O)N2CCN(C3CN(C(=O)c4ccc5c(c4)B(O)OC5)C3)CC2)c1 observation_type="chromatographic logD" observed=4.17
compound=O=C(OCc1cc(Cl)cc(Cl)c1)N1CCN(C2CCN(C(=O)c3ccc4c(c3)COB4O)CC2)CC1 observation_type="chromatographic logD" observed=4.58
compound="O=C(OCc1cc(Cl)cc(Cl)c1)N1CCN(C2CCN(C(=O)c3ccc4c(c3)COB4O)C2)CC1 (stereo not shown)" observation_type="chromatographic logD" observed=4.38
compound="COc1cc(COC(=O)N2CCN(C3CCN(C(=O)c4ccc5c(c4)COB5O)C3)CC2)cc(OC)c1 (stereo not shown)" observation_type="chromatographic logD" observed=3.03
compound="Cc1cc(C)cc(COC(=O)N2CCN(C3CCN(C(=O)c4ccc5c(c4)COB5O)C3)CC2)c1 (stereo not shown)" observation_type="chromatographic logD" observed=3.99
compound=COc1cc(COC(=O)N2CCN(C3CN(C(=O)c4ccc5c(c4)B(O)OC5)C3)CC2)cc(OC)c1 observation_type="chromatographic logD" observed=3.21
compound=O=C(OCc1ccccc1)N1CCN(C2CN(C(=O)c3ccc4c(c3)COB4O)C2)CC1 observation_type="chromatographic logD" observed=2.9
compound=Cc1cc(C)cc(COC(=O)N2CCN(C3CN(C(=O)c4ccc5c(c4)COB5O)C3)CC2)c1 observation_type="chromatographic logD" observed=4.01
